# target-or-test-system: Ubiquitin-activating enzyme e1, putative (Leishmania donovani (strain BPK282A1))
# Sequence (whole entry): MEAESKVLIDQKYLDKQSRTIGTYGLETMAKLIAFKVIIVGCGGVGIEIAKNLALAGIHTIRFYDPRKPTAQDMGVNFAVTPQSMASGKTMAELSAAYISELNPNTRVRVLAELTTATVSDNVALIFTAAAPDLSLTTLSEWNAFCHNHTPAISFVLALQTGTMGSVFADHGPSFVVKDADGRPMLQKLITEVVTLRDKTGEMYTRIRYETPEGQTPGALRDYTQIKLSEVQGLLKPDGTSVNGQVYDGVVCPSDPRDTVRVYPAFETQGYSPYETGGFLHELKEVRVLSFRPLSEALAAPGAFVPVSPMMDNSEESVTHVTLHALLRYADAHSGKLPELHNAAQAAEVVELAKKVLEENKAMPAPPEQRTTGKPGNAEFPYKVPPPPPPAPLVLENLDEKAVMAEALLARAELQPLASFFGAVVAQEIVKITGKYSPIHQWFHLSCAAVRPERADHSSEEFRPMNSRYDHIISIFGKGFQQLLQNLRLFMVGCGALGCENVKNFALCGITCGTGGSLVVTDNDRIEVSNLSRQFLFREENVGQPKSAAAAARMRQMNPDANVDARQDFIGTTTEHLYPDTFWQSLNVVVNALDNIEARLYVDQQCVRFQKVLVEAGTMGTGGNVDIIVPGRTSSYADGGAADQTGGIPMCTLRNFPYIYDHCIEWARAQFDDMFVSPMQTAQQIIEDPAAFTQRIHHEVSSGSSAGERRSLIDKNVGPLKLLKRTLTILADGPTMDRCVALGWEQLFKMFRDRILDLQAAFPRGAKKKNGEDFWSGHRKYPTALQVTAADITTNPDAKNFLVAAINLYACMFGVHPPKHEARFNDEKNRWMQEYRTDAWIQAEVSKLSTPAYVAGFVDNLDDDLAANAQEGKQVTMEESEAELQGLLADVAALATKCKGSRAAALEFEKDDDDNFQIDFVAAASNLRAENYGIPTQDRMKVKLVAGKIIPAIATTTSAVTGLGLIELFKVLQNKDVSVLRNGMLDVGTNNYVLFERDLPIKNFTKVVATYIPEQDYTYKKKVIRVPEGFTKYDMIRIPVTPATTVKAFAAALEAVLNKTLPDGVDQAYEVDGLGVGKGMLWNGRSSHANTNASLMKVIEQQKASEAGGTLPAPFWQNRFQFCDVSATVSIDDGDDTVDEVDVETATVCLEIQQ
# method: Leishmania donovani Ubiquitin Activating Enzyme (LdE1)
# Assay type: functional
# Design: scale not given: direction of the effect not stated beside the values
# assay-setup: 30 µM
Measured potencies and affinities stand elsewhere.

- compound: "CN1C(=O)C(C)(C)COc2cc(NS(=O)(=O)c3ccccc3)ccc21"
  Percent Effect, %: 8.22
- compound: "O=C(CCNc1ncccn1)NCCc1ccn(-c2ccccc2)n1"
  Percent Effect, %: 21.5
- compound: "O=C(c1cncc(N2CCC3(CCNCC3)CC2)n1)N1CCCC1"
  Percent Effect, %: 18.7
- compound: "CO[C@H]1CCN(Cc2cnn(C)c2)[C@@H]2CN(Cc3cccnc3)C[C@H]12"
  Percent Effect, %: 12
- compound: "O=C(CCc1nccs1)N1CCN(c2cccnn2)CC1"
  Percent Effect, %: 10.4
- compound: "CCc1c(C)sc(NC(=O)CN2CCN(CC)CC2)c1C(=O)OC"
  Percent Effect, %: -12.5
- compound: "CC(C)CCN1CC2(CCCN(C(=O)c3cscn3)C2)CCC1=O (stereo not drawn)"
  Percent Effect, %: 7.79
- compound: "O=C1CC2(CCN(c3nncs3)C2)CN1c1ccccc1 (stereo not drawn)"
  Percent Effect, %: 5.41
- compound: "CC(C)Cc1noc(CN2CCCC(Cn3cncn3)C2)n1 (stereo not drawn)"
  Percent Effect, %: 16.2
- compound: "O=S(=O)(N1CCCCC1)N1CCc2nc(C3CCNCC3)ncc2C1"
  Percent Effect, %: -4.05
- compound: "CC(NCc1ccccc1Br)c1ccc2[nH]c(=O)[nH]c2c1 (stereo not drawn)"
  Percent Effect, %: -18.9
- compound: "CN(C)C(=O)NC1COC2(CCN(Cc3nccn3C)CC2)C1 (stereo not drawn)"
  Percent Effect, %: 5.2
- compound: "Cc1ccc(CNCc2ccc(-n3nc(C)cc3C)nc2)cc1"
  Percent Effect, %: 13.2
- compound: "O=C(CN1CCCCC1Cn1cncn1)NC1CCN(C2CC2)CC1 (stereo not drawn)"
  Percent Effect, %: -2.7
- compound: "Cc1cnn(CCNCc2ccc(C#N)cc2F)c1"
  Percent Effect, %: 10.8
- compound: "CCOCC(O)CN1CCN(C(=O)c2cc(F)ccc2C)CC1 (stereo not drawn)"
  Percent Effect, %: 0
- compound: "Cc1cn2c(n1)CCC(NC(=O)c1ccc(CS(C)(=O)=O)o1)C2 (stereo not drawn)"
  Percent Effect, %: 7.89
- compound: "CCc1cnc2c(c1Nc1ccc(OC)cc1)c(=O)n(C)c(=O)n2C"
  Percent Effect, %: 18.2
- compound: "CCN(CC1CCOC1)C(=O)c1ccccc1NS(=O)(=O)CC (stereo not drawn)"
  Percent Effect, %: 7.89
- compound: "CCn1c(=O)nc2n1C(=O)N(c1cccc(Cl)c1)C2"
  Percent Effect, %: 6.67
- compound: "O=C(NCC1CCN(Cc2ccsc2)CC1)NC1CC1"
  Percent Effect, %: 7.79
- compound: "CCOc1ccc(CC(=O)N2CCN(c3nccn3C)CC2)cc1"
  Percent Effect, %: 13
- compound: "COc1ccc(CN2CCn3cc(CN4CCCCC4)nc3C2)cc1"
  Percent Effect, %: 2.6
- compound: "CC1CCN(S(=O)(=O)NCC2CCOc3ccccc3C2)CC1 (stereo not drawn)"
  Percent Effect, %: 2.6
- compound: "CCn1cc(CN2CCCN(C(=O)c3ccn(C)c(=O)c3)CC2)cn1"
  Percent Effect, %: 20.8
- compound: "Cc1cnn(CCC(=O)N2C[C@H]3CC[C@@H]2CN(CC(=O)N(C)C)C3)c1"
  Percent Effect, %: 13.5
- compound: "O=C(CN1CCc2ccccc21)Nc1ccc(OC(F)F)cc1"
  Percent Effect, %: 1.39
- compound: "CC(C)CNC(=O)[C@H]1CCS(=O)(=O)[C@@H]2CN(Cc3ccc(Cl)cc3)C[C@H]12"
  Percent Effect, %: 2.7
- compound: "Cc1cc(C(=O)NC2CCCN(c3ccccc3)C2=O)on1 (stereo not drawn)"
  Percent Effect, %: 5.33
- compound: "Cc1nn(C)cc1CN1CCC(C2Nc3ccccc3S(=O)(=O)N2)CC1 (stereo not drawn)"
  Percent Effect, %: 6.76
- compound: "O=C(CN1C=Nc2ccccc2S1(=O)=O)NCCc1cccs1"
  Percent Effect, %: 13.2
- compound: "CS(=O)(=O)NCc1nnc2n1CCN(CC1CC1)C2"
  Percent Effect, %: 8.11
- compound: "CC(=O)N1CCN(C)CC(COCc2ccccc2)C1 (stereo not drawn)"
  Percent Effect, %: 12.2
- compound: "Cc1cc(N2CCC(N(C)C(=O)Nc3ccccc3)CC2)nc(C)n1"
  Percent Effect, %: 8.22
- compound: "CCS(=O)(=O)N1CCC2(CCC2NC(=O)c2ccn(C)c2)CC1 (stereo not drawn)"
  Percent Effect, %: 10.8
- compound: "COCC1CCN(c2cc(C3CN(C)CCO3)nc(C)n2)CC1 (stereo not drawn)"
  Percent Effect, %: -5.33
- compound: "Cc1nn(CC(=O)N2CCCC2Cn2cccn2)c(C)c1Cl (stereo not drawn)"
  Percent Effect, %: 21.6
- compound: "Cc1csc(C2CCCCN2C(=O)CN(C)C2CC2)n1 (stereo not drawn)"
  Percent Effect, %: -13.9
